meta.source: PubChem BioAssay (NCI)

test system: 786-0 renal; assay: NCI-60 one-dose screen, 48 h; conditions: 10 µM unless noted
Compounds without any hit were thinned out: in the full panel of roughly 83,000, 20% have a hit. Calls of active or inactive are those of the source. Rule for the calls: active = growth percent below 10; inactive = the rest.
Write down the outcome that applies. Available outcomes: True = active, False = inactive

-- ask Outcome logged for O=C1CCC2(O)[C@@H]3Cc4ccc(O)c5c4[C@]2(CCN3Cc2ccoc2)C1O5 (stereo partly drawn) in this assay:
-- reply False

-- ask Called result for O=C1C=C2C(=CCOC2O)O1 (stereo not drawn)
-- reply False

-- ask Name the outcome recorded for O=[N+]([O-])c1cc([N+](=O)[O-])c(Nn2c3ccccc3c3ccccc32)c([N+](=O)[O-])c1 in the assay.
-- reply True

-- ask // outcome(item) with item = CN(C)C(=O)Oc1ccc(Br)cc1
-- reply False

-- ask Field: outcome | Entry: COC(=O)[C@@H](C)C[C@H](Cc1ccccc1)NC(=O)c1csc([C@@H](C[C@H](C(C)C)N(C)C(=O)C2(NC(=O)[C@H]3CCCCN3C)CC2)OC(C)=O)n1
-- reply False

-- ask In this assay, the call recorded for O=P1(NCCCl)OCCCN1CCCl (stereo not drawn) was what?
-- reply False

-- ask Answer briefly: the call reported for CC[C@H](C)[C@H](NC(=O)[C@H]1CCCCN1C)C(=O)N(C)[C@H](CCc1nc(C(=O)N[C@@H](Cc2ccccc2)C[C@H](C)C(=O)OC)cs1)C(C)C in this assay.
-- reply True

-- ask Dear colleague, could you share the recorded outcome for CC(=O)c1ccc(C(=O)NCC2CCC3(CC2)OOC2(CCCCC2)OO3)cc1 when you have a moment?
-- reply True

-- ask What was the test verdict on CN1CC(=O)N(O)C1(C)c1cccnc1 (stereo not drawn) ?
-- reply False

-- ask // param item: CC1(C)CN1P(=O)(N1CC1(C)C)N1CC1(C)C (stereo not drawn) ; yields the recorded call
-- reply False

-- ask Kindly provide the recorded test outcome for the following compound: COC(=O)C1CCC(NC(=O)c2csc([C@@H](C[C@H](C(C)C)N(C)C(=O)[C@@H](NC(=O)[C@H]3CCCCN3C)C(C)C)OC(C)=O)n2)CC1 (stereo partly drawn)
-- reply False

-- ask Assay outcome for C1CCC([PH+](C2CCCCC2)C2CCCCC2[PH+](C2CCCCC2)C2CCCCC2)CC1.O=C(C1[CH-]CCCC1)C1CCCC[N-]1.[Au] (stereo not drawn) : what was it?
-- reply True

----------
tested on: MDA-MB-231 breast; test: NCI-60 one-dose screen, 48 h; conditions: 10 µM unless noted
Compounds without any hit were thinned out: in the full panel of roughly 83,000, 20% have a hit. Activity calls are given as the source filed them. Rule for the calls: active = growth percent below 10; inactive = the rest.
// classify into True = active, False = inactive

COMPOUND	LABEL CLASS
CCCCCN(CCCCC)CC(O)c1cc(Cl)ccc1OC (stereo not given)	False
CS(=O)(=O)CCN1CC2CCCC(C2)C1	False

--- query ---
-- ask Please indicate how the test categorized Clc1ccc(N2COOC3(OOC2)C2CC4CC(C2)CC3C4)cc1 .
-- reply False

----------
system: PC-3 prostate; assay: NCI-60 one-dose screen, 48 h (100 = growth as untreated, 0 = no growth, -100 = all killed); conditions: 10 µM unless noted
This is part of a sample that, as a whole, favours compounds with a hit. Of some 83,000 tested, about 20% had one in any assay.
Listed here are compounds together with their documented growth.
Quick note: give the figure in %, leave out the unit.

COMPOUND	growth [%]
COc1cccc2c1c(C(=O)C(=O)Nc1cc(C)no1)cn2Cc1ccc(F)cc1	62.5
CN(CCCCN(C)CCOS(C)(=O)=O)CCOS(C)(=O)=O	85.3
C=CCn1cc(C=C2C(=O)N(C)C(=O)N(C)C2=O)c2ccccc21	89.4
CC1[C@H](C)OC(=O)CC(O)CC(O)CC(O)CCC(O)C(O)C[C@]2(O)CC(O)C(C(=O)O)C(CC(OC3O[C@H](C)[C@@H](O)[C@H](N)[C@@H]3O)/C=C/C=C/C=C/C=C/CC/C=C/C=C/[C@H](C)[C@H]1O)O2 (some centres undefined)	98.7
COc1cc(NC(C)CCCNC2CN3CCC2CC3)c2ncccc2c1 (centres undefined)	55.6
COC(=O)C12CC(NC(=O)c3csc([C@@H](C[C@H](C(C)C)N(C)C(=O)[C@@H](NC(=O)[C@H]4CCCCN4C)C(C)C)OC(C)=O)n3)(C1)C2	23
Fc1ccc(C2=CCNCC2)cc1	101
CC[C@H](C)[C@H](NC(=O)c1cccn1C)C(=O)N(C)[C@H](C[C@@H](OC(C)=O)c1nc(C(=O)N[C@@H](Cc2ccccc2)C[C@H](C)C(=O)OC)cs1)C(C)C	21.2

Shifting focus to the compound that follows.
-- ask For the compound ClCCN(CCCl)c1nc(Cl)c(C2CC(c3ccccc3)=NN2c2cc(Cl)cc(Cl)c2)s1 (centres undefined) , report growth.
-- reply 93.7

----------
tested on: HOP-62 NSCLC; test: NCI-60 one-dose screen, 48 h (100 = growth as untreated, 0 = no growth, -100 = all killed); details: 10 µM unless noted
Compounds without any hit were thinned out: in the full panel of roughly 83,000, 20% have a hit.
Note to self: growth under 90% means 1 (yes), ties and anything higher get 0 (no).

> print(dat)
                            smiles.notation  tested.target  label.class
1                [Cl][Hg][c]1cc(Br)cc(Br)c1   HOP-62 NSCLC      1 (yes)
2  CC1(C)C(C(=O)c2cn(CCCCF)c3ccccc23)C1(C)C   HOP-62 NSCLC       0 (no)
3  CC1=C(CNO)C2=C(C)C3(CC3)[C@@](C)(O)C(=O)C2=C1   HOP-62 NSCLC      1 (yes)
4            O=C([O][Hg][c]1ccccc1)c1ccccc1   HOP-62 NSCLC      1 (yes)

Now look at this entry.
-- ask Please let me know if COc1ccc(/C(C)=C(\c2ccc(OCCN3CCOCC3)cc2)c2ccc(OC(=O)Cc3ccccc3)cc2)cc1 shows growth below 90%.
-- reply 0 (no)

----------
tested on: OVCAR-8 ovarian; test: NCI-60 one-dose screen, 48 h (100 = growth as untreated, 0 = no growth, -100 = all killed); settings: 10 µM unless noted
This is part of a sample that, as a whole, favours compounds with a hit. Of some 83,000 tested, about 20% had one in any assay.
The label depends only on growth: Criterion met if it is at least 60%, Criterion not met if it is smaller.

Worked examples, 8 molecules total:
MOLECULE	TESTED TARGET	LABEL CLASS
CCCCCCCCCCCCCCCCCC1OC[C@@H](COC(=O)O[C@@H](C(=O)O[C@H]2C[C@@]3(O)[C@@H](OC(=O)c4ccccc4)[C@@H]4[C@]5(OC(C)=O)CO[C@@H]5C[C@H](O)[C@@]4(C)C(=O)[C@H](OC(C)=O)C(=C2C)C3(C)C)[C@@H](NC(=O)c2ccccc2)c2ccccc2)O1 (some centres undefined)	OVCAR-8 ovarian	Criterion met
Clc1cccc(NCOOC2(OOCNc3cccc(Cl)c3)CCCCCC2)c1	OVCAR-8 ovarian	Criterion met
Cc1ccccc1NC(=NCCCN1CC1)Nc1ccccc1C	OVCAR-8 ovarian	Criterion met
CC[C@H](C)[C@@H]([C@@H](CC(=O)N1CCC[C@H]1[C@H](OC)[C@@H](C)C(=O)N[C@H](C)[C@@H](O)c1ccccc1)OC)N(C)C(=O)[C@@H](NC(=O)[C@@H](NC)C(C)C)C(C)C	OVCAR-8 ovarian	Criterion not met
COc1ccc(C(=O)c2cc(OC)c(OC)c(OC)c2)cc1OC(C)=O	OVCAR-8 ovarian	Criterion not met
CO[C@H](C(=O)O)[C@@H]1Cc2cc3cc(OC4CC(OC5CC(O)C(O)C(C)O5)C(O)C(C)O4)c(C)c(O)c3c(O)c2C(=O)[C@H]1OC1CC(OC2CC(OC3CC(C)(O)C(O)C(C)O3)C(O)C(C)O2)C(O)C(C)O1 (some centres undefined)	OVCAR-8 ovarian	Criterion not met
O=C1NC(=O)C(=Cc2cn(C(=O)c3ccccc3)c3ccccc23)C(=O)N1	OVCAR-8 ovarian	Criterion met
[Au+].[N-]=C=O.c1ccc(CN2[CH-]N(Cc3ccccc3)C(c3ccccc3)=C2c2ccccc2)cc1	OVCAR-8 ovarian	Criterion met

-- ask Answer whether growth of CCC(=O)Nc1ccc(Cl)c(Cl)c1 is greater than or equal to 60%.
-- reply Criterion met

-- ask Hello, I need to know if [Cl][Hg][c]1cc(Br)cc(Br)c1 has measured growth not below 60%. Thanks!
-- reply Criterion met

----------
system: OVCAR-4 ovarian; assay: NCI-60 one-dose screen, 48 h; details: 10 µM unless noted
Compounds without any hit were thinned out: in the full panel of roughly 83,000, 20% have a hit. Calls of active or inactive are those of the source. Rule for the calls: active = growth percent below 10; inactive = the rest.
Tick one outcome: active, inactive

Answered cases to consult:
> print(dat)
                                   compound  label.class
1  CC[C@H](C)[C@H](NC(=O)c1nccn1C)C(=O)N(C)[C@H](C[C@@H](OC(C)=O)c1nc(C(=O)N[C@@H](Cc2ccccc2)C[C@H](C)C(=O)OC)cs1)C(C)C     inactive
2  O=C1C2CCC1C(N1CCCC1)CC2 (stereo not given)     inactive
3          c1ccc(Nc2nc(-c3ccccc3)c[se]2)cc1     inactive
4  CCOC(=O)N[C@H]1CCc2c(Br)c(OC)c(OC)c(OC)c2-c2ccc(SC)c(=O)cc21       active
5      C#Cc1ccc2c(c1)C(c1ccccc1)=NCC(=O)N2C     inactive

-- ask // outcome(item) with item = CCCCCN(CCCCC)CC(O)c1cc(Cl)ccc1OC (stereo not given)
-- reply inactive

-- ask Hello, I am checking results. What call was entered for CCCOC(=O)N[C@H]1CCc2c(Br)c(OC)c(OC)c(OC)c2-c2ccc(SC)c(=O)cc21 ?
-- reply inactive

-- ask In this assay, the call recorded for COC(=O)CCC1=C(C)c2cc3[n-]c(cc4nc(cc5[n-]c(cc1n2)c(CCC(=O)OC)c5C)C=C4C)cc3C.[Cd+2] was what?
-- reply inactive

-- ask Hello, I am checking results. What call was entered for O=C(Nc1ccc([N+](=O)[O-])cc1)C(Cl)(Cl)Cl ?
-- reply inactive

-- ask What call does the record list for Cc1cc(N(CCCl)CCCl)ccc1C=Nc1cccnc1 ?
-- reply inactive

-- ask What did the test return for COC(=O)[C@@]1(C)CC[C@]2(C)CC[C@]3(C)C4=CC=C5C(=CC(=O)C(O)=C5C)[C@]4(C)CC[C@@]3(C)[C@@H]2C1 ?
-- reply active

-- ask Lab log entry: COc1ccc(/C(C)=C(\c2ccc(OCCN3CCOCC3)cc2)c2ccc(OC(=O)Cc3ccccc3)cc2)cc1 — outcome as called in the assay?
-- reply inactive

-- ask Which outcome was entered for the compound Clc1ccc(CSC(Cn2ccnc2)c2ccc(Cl)cc2Cl)cc1 (stereo not given) in this test?
-- reply inactive

-- ask Could you kindly confirm the outcome this assay logged for Nc1ccc2c(c1)oc1ccccc12 ?
-- reply inactive

-- ask What is the recorded call for this compound in the test? CNC(=O)Oc1cccc(C(F)(F)F)c1
-- reply inactive
